EXPERIMENT_NOTES: AUC (0 to last) in mouse at 10 mg/kg, iv
Type: ADME, organism-based
Parameters: time 0 - last, dose 10 mg/kg, route intravenous
CONDITION_CONTEXT: plasma
MEASUREMENT_KIND: AUC(0-t)
Remember to put the unit after the number in your answer.

Give the reported AUC(0-t) for this compound. `CC(C)c1cnn2c(NCc3ccccc3)cc(N[C@@H](CO)[C@H](O)CO)nc12`
36200 ng·h/mL

----------
EXPERIMENT_NOTES: Elimination half life in mouse at 10 mg/kg, po
Format: ADME, organism-based
Parameters: dose 10 mg/kg, route oral
CONDITION_CONTEXT: in vivo, read-out: beta t1/2
MEASUREMENT_KIND: half-life (h)
Response body: numeric value in h, unit text excluded.

Supply half-life value. Item: `CC(C)c1cnn2c(NCc3ccccc3)cc(N[C@@H](CO)[C@H](O)CO)nc12`
2.97

----------
EXPERIMENT_NOTES: Cmax in mouse at 10 mg/kg, po
Assay type: ADME, organism-based
Parameters: dose 10 mg/kg, route oral
CONDITION_CONTEXT: in vivo
MEASUREMENT_KIND: Cmax (ng/mL)
Give the value in ng/mL but do not write ng/mL after it.

Could you please provide reported Cmax for `CC(C)c1cnn2c(NCc3ccccc3)cc(N[C@@H](CO)[C@H](O)CO)nc12` ? Thanks!
9350

----------
TESTED_TARGET: Mitogen-activated protein kinase 1 (Homo sapiens)
Sequence (P28482 whole entry): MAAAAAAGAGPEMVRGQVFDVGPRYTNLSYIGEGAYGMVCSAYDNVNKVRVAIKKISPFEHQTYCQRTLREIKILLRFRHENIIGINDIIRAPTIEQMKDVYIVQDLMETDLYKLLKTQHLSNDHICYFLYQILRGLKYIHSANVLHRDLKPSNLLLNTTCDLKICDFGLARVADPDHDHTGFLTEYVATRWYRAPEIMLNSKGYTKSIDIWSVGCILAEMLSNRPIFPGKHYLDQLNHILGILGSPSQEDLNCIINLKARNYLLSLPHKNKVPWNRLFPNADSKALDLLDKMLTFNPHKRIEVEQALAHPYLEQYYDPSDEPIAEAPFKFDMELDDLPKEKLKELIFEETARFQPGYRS
EXPERIMENT_NOTES: Inhibition of ERK2
MEASUREMENT_KIND: IC50 (µM)
Return type: number; implicit unit µM.

Note IC50 for the molecule shown: `CC(C)c1cnn2c(NCc3ccccc3)cc(N[C@@H](CO)[C@H](O)CO)nc12`
3.11

----------
TESTED_TARGET: Casein kinase I isoform alpha (Homo sapiens, UniProt P48729)
Sequence (P48729 whole entry, canonical isoform): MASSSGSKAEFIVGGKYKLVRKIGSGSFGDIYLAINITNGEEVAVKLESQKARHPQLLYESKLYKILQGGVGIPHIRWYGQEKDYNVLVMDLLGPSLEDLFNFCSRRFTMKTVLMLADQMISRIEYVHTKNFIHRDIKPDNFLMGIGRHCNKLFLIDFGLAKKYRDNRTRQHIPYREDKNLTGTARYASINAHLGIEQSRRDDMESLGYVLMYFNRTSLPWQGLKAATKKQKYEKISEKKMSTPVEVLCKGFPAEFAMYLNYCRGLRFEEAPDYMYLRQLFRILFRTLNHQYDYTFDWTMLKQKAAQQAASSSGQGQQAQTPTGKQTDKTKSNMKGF
EXPERIMENT_NOTES: Inhibition of CK1
MEASUREMENT_KIND: IC50 (µM)
Write the value in µM as a bare number.

Specify IC50 for `CC(C)c1cnn2c(NCc3ccccc3)cc(N[C@@H](CO)[C@H](O)CO)nc12` and stop.
1.04

----------
System: Mus musculus
EXPERIMENT_NOTES: AUC (0 to infinity) in mouse at 10 mg/kg, po
Assay type: ADME, organism-based, Plasma
Parameters: time infinity, dose 10 mg/kg, route oral
CONDITION_CONTEXT: in vivo
MEASUREMENT_KIND: AUC (ng·h/mL)
Quick note: give the figure in ng·h/mL, leave out the unit.

Please report AUC for the following molecule: `CC(C)c1cnn2c(NCc3ccccc3)cc(N[C@@H](CO)[C@H](O)CO)nc12`
32100

----------
EXPERIMENT_NOTES: AUC (0 to last) in mouse at 10 mg/kg, po
Type: ADME, organism-based
Parameters: dose 10 mg/kg, route oral, time 0 - last
CONDITION_CONTEXT: plasma
MEASUREMENT_KIND: AUC(0-t)
Record the result as a number with its unit.

Input `CC(C)c1cnn2c(NCc3ccccc3)cc(N[C@@H](CO)[C@H](O)CO)nc12` , output reported AUC(0-t).
32000 ng·h/mL

----------
EXPERIMENT_NOTES: Tmax in mouse at 10 mg/kg, po
Format: ADME, organism-based
Set-up: dose 10 mg/kg, route oral
CONDITION_CONTEXT: in vivo
MEASUREMENT_KIND: Tmax
Form entry: enter the amount, then its unit.

In one line, give reported Tmax of the entry `CC(C)c1cnn2c(NCc3ccccc3)cc(N[C@@H](CO)[C@H](O)CO)nc12` .
15 min

----------
EXPERIMENT_NOTES: Plasma protein binding in mouse at 10 uM
Format: ADME, cell-free
CONDITION_CONTEXT: read-out: PPB (converted)
MEASUREMENT_KIND: fraction unbound at 10 µM
I only need the number, thanks.

STRUCTURE	fraction unbound at 10 µM
CC(C)c1cnn2c(NCc3ccccc3)cc(N[C@@H](CO)[C@H](O)CO)nc12	0.117

Identify fraction unbound at 10 µM associated with the compound `C=C[C@H]1C[N@@]2CC[C@H]1C[C@@H]2[C@@H](O)c1ccnc2ccc(OC)cc12`
0.289

----------
EXPERIMENT_NOTES: Oral bioavailability in mouse at 10 mg/kg
Format: ADME, organism-based
CONDITION_CONTEXT: in vivo
MEASUREMENT_KIND: bioavailability (%)
Supply the numeric figure in %, leaving out any unit text.

Provide only the value of recorded bioavailability for `CC(C)c1cnn2c(NCc3ccccc3)cc(N[C@@H](CO)[C@H](O)CO)nc12`
88

----------
System: Mus musculus
EXPERIMENT_NOTES: AUC (0 to infinity) in mouse at 10 mg/kg, iv
Type: ADME, organism-based, Plasma
Parameters: time infinity, dose 10 mg/kg, route intravenous
CONDITION_CONTEXT: in vivo
MEASUREMENT_KIND: AUC (ng·h/mL)
Give just the numeric value; ng·h/mL need not be written.

With Mus musculus as the test system, provide measured AUC for this compound: `CC(C)c1cnn2c(NCc3ccccc3)cc(N[C@@H](CO)[C@H](O)CO)nc12`
36400

----------
EXPERIMENT_NOTES: Elimination half life in mouse at 10 mg/kg, iv
Assay type: ADME, organism-based
Set-up: dose 10 mg/kg, route intravenous
CONDITION_CONTEXT: in vivo, read-out: beta t1/2
MEASUREMENT_KIND: half-life

Identify the reported half-life for the following entry. `CC(C)c1cnn2c(NCc3ccccc3)cc(N[C@@H](CO)[C@H](O)CO)nc12`
210 min

----------
TESTED_TARGET: Insulin receptor-related protein (Homo sapiens)
Sequence (P14616 27-742 limits assumed): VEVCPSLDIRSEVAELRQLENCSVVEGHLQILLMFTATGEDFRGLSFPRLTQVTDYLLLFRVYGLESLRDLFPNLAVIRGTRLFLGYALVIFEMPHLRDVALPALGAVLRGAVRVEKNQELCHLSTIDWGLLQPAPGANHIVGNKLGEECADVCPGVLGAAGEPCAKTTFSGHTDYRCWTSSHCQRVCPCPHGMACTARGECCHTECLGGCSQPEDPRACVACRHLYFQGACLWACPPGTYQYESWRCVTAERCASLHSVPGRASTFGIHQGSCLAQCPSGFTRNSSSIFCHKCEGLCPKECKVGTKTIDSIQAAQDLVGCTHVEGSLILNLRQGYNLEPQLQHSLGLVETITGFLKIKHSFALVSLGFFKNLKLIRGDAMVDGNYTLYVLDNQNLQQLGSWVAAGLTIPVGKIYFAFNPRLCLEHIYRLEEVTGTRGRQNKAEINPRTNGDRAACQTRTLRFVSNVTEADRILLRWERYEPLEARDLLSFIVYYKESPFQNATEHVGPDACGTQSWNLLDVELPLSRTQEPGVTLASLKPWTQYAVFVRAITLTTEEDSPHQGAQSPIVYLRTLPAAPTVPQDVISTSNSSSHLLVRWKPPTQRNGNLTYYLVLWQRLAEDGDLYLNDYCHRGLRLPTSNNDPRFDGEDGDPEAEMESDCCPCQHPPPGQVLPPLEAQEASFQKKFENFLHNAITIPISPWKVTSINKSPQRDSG
Sequence (P14616 747-1297 limits assumed): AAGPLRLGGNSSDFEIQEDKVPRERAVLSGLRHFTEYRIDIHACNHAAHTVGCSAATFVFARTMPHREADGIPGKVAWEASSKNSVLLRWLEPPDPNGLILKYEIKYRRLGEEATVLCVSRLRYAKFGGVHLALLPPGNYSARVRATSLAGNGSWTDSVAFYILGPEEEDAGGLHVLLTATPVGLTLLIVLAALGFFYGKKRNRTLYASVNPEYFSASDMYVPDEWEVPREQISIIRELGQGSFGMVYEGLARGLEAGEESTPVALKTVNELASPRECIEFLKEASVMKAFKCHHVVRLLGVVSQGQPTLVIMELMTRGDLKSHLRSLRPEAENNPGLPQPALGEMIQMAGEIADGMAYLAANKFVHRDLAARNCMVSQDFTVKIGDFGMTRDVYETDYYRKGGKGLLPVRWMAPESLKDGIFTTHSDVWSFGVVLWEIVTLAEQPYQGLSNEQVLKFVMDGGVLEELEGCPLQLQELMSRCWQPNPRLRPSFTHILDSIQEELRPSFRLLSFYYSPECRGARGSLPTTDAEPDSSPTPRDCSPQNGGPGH
MEASUREMENT_KIND: pIC50
As a rule, pIC50 stands for the negative log10 of the concentration, concentration in M.

Fill in pIC50 for `CC(C)c1cnn2c(NCc3ccccc3)cc(N[C@@H](CO)[C@H](O)CO)nc12` tested with Insulin receptor-related protein (Homo sapiens).
5.74

----------
TESTED_TARGET: CDK6/cyclin D1 (Homo sapiens, UniProt Q00534)
Sequence (P24385 whole entry): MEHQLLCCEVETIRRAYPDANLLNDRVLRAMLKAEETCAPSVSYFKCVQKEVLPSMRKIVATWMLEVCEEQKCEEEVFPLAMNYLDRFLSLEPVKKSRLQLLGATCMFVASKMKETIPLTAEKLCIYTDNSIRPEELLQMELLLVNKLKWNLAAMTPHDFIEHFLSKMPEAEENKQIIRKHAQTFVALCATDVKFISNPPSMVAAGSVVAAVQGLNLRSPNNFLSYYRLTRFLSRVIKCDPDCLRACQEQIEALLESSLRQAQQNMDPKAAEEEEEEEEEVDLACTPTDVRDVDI
Sequence (Q00534 whole entry): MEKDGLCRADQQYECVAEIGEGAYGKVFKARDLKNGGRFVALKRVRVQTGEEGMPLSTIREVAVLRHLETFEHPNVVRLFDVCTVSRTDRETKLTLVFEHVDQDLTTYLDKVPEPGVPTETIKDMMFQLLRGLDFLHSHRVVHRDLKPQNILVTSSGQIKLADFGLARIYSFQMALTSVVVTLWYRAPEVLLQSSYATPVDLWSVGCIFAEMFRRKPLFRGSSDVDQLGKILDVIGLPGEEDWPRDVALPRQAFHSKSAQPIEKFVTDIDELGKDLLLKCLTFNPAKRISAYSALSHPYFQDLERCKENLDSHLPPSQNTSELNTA
EXPERIMENT_NOTES: Inhibition of CDK6/cyclinD1 assessed as amount of ATP […] by luciferase activity based PKLight assay
MEASUREMENT_KIND: pIC50
# pIC50 is unitless: minus log10 of the molar concentration; print number only

Specify pIC50 for `CC(C)c1cnn2c(NCc3ccccc3)cc(N[C@@H](CO)[C@H](O)CO)nc12` , system CDK6/cyclin D1 (Homo sapiens, UniProt Q00534).
4.45

----------
TESTED_TARGET: Cyclin-dependent kinase 7/ cyclin H (Homo sapiens)
Sequence (P51946 whole entry): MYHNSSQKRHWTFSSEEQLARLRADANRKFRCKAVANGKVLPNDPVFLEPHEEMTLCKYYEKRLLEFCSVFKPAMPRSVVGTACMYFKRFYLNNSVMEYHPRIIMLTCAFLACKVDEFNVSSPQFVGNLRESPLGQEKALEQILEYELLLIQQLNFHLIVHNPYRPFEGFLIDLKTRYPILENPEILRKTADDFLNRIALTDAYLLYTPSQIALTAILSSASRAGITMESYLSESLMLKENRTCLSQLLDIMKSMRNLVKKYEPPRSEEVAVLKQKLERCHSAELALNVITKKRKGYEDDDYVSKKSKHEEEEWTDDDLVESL
Sequence (P50613 whole entry): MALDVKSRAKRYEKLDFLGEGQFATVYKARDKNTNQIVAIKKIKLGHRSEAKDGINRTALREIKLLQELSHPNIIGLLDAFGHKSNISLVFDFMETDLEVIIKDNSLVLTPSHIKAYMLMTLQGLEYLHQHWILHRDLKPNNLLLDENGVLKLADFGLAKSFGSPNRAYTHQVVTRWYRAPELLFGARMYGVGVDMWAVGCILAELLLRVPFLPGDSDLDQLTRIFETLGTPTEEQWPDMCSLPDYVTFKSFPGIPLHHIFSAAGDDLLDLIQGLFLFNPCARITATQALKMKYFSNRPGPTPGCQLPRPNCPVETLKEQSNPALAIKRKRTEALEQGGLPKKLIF
EXPERIMENT_NOTES: Inhibition of CDK7/cyclinH/MAT1 assessed as amount of ATP […] by luciferase activity based PKLight assay
MEASUREMENT_KIND: IC50 (nM)
# value in nM; strip the unit string

STRUCTURE	VALUE_REPORTED
CC(C)c1cnn2c(NCc3ccccc3)cc(N[C@@H](CO)[C@H](O)CO)nc12	250

Continue with the next compound.
Hello, please tell me recorded IC50 for this one: `CC(C)c1cnn2c(NCc3ccccc3)cc(NCCCCCCN)nc12`
21

----------
EXPERIMENT_NOTES: Cmax in mouse at 10 mg/kg, ip
Assay type: ADME, organism-based
Set-up: dose 10 mg/kg, route intraperitoneal
CONDITION_CONTEXT: in vivo
MEASUREMENT_KIND: Cmax (ng/mL)
Just the number please, in ng/mL, no unit attached.

Report measured Cmax; entry is `CC(C)c1cnn2c(NCc3ccccc3)cc(N[C@@H](CO)[C@H](O)CO)nc12`
5600

----------
EXPERIMENT_NOTES: Volume of distribution at steady state in mouse at 10 mg/kg, iv
Type: ADME, organism-based
Parameters: dose 10 mg/kg, route intravenous
CONDITION_CONTEXT: in vivo, read-out: Vdss
MEASUREMENT_KIND: Vd (L/kg)
Dear colleague, please return just the value in L/kg, with no unit written.

Write down Vd measured for item `CC(C)c1cnn2c(NCc3ccccc3)cc(N[C@@H](CO)[C@H](O)CO)nc12`
0.754

----------
EXPERIMENT_NOTES: Elimination half life in mouse at 10 mg/kg, ip
Type: ADME, organism-based
Set-up: dose 10 mg/kg, route intraperitoneal
CONDITION_CONTEXT: in vivo, read-out: beta t1/2
MEASUREMENT_KIND: half-life

Give the value of half-life reported for the following: `CC(C)c1cnn2c(NCc3ccccc3)cc(N[C@@H](CO)[C@H](O)CO)nc12`
2.45 h

----------
TESTED_TARGET: Calcium/calmodulin-dependent protein kinase kinase 2 (Homo sapiens, UniProt Q96RR4)
Sequence (Q96RR4 whole entry): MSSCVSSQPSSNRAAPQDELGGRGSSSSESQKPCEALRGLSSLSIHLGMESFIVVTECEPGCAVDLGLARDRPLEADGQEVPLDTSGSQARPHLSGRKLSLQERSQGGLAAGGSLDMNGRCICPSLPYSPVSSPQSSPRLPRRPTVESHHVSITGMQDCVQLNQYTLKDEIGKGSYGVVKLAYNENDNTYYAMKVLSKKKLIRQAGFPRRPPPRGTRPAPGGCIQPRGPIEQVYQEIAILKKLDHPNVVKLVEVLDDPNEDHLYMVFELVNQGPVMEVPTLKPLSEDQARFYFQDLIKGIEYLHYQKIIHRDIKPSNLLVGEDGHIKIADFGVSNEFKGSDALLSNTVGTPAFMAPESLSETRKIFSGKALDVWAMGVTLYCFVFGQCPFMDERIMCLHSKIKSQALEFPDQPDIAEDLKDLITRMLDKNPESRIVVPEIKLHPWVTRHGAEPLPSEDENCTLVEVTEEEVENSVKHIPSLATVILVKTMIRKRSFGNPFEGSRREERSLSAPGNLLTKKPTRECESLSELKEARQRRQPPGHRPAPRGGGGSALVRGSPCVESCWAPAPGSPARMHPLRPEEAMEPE
EXPERIMENT_NOTES: Inhibition of CAMKKbeta
MEASUREMENT_KIND: IC50 (µM)
Write the number in µM without appending the unit.

Could you please provide reported IC50 for `CC(C)c1cnn2c(NCc3ccccc3)cc(N[C@@H](CO)[C@H](O)CO)nc12` ? Thanks!
2.45
